System: TK-10
Assay: NCI tumour cell line growth inhibition, 48 h
Active and inactive are the calls of the source. Cut-off read from the data, not from the text of the source: active = GI50 up to about 1.1 µM and inactive = higher.
Possible outcomes: YES for active, NO for inactive

>>> print(df.to_string())
                                    compound  answer_label
 0  CC1=C(C(=O)Nc2cc(=O)n(C)c(=O)n2C)C(c2ccco2)C(C(=O)Nc2cc(=O)n(C)c(=O)n2C)=C(C)N1            NO
 1  COc1ccccc1CNC(=O)[C@H](Cc1ccc(O)cn1)NC(C)=O            NO
 2  O=C1CC2CCN(C(=O)c3ccccc3)CC2CCN1 (stereo unspecified)            NO
 3  CNC(=O)NCCCC(NC(C)=O)C(=O)NCc1ccccc1 (stereo unspecified)            NO
 4  CCOC(=O)c1c(SC(=O)C(C)(C)Oc2ccc(Cl)cc2)n(-c2ccccc2)c(=S)n(-c2ccccc2)c1=O            NO
 5  CC(=O)OCC1OC(Nc2ccc3nc(C)n(-c4cccc(C)c4)c(=O)c3c2)C(OC(C)=O)C(OC(C)=O)C1OC(C)=O (stereo unspecified)            NO
 6  CC(=O)N1C(OCc2ccccc2)CCN1c1ccccc1 (stereo unspecified)            NO
 7  CC(C)=CCC/C(=C\CC/C(=C\CCc1ccoc1)C(=O)O)C(=O)O            NO
 8  C=CCCC(On1c(-c2ccc(Cl)cc2)csc1=S)c1ccccc1 (stereo unspecified)            NO
 9                CCOC(=O)c1nc(C)oc1C(F)(F)F            NO
10  O=C(O)CCC(NC(=O)c1ccc(Oc2nc3ccccc3nc2C(=O)O)cc1)C(=O)O (stereo unspecified)            NO
11     CN(C)CCCNc1ccnc2cc([N+](=O)[O-])ccc12            NO
12  CC(CN1CC(=O)NC(=O)C1)N1CC(=O)NC(=O)C1 (stereo unspecified)            NO
13  S=C(N/N=C(/c1ccccc1)c1ccccn1)N(Cc1ccccn1)Cc1ccccn1           YES
14  Cc1ccc(NCc2nnc3c(-c4ccccc4)nc4ccccc4n23)cc1            NO
15  [O-][S+](CC1(O)CCCCC1)c1ccccc1 (stereo unspecified)            NO
16      CN/C(=N\N)NS(=O)(=O)c1cc(C)c(Cl)cc1S            NO
17  O=C(CC1=Nc2nnc(CCCCCCCc3nnc4n3C(=O)C(CC(=O)c3ccccc3)=N4)n2C1=O)c1ccccc1            NO
18           O=C(NCC(=O)N1CCOC1=O)OCc1ccccc1            NO
19  O=C(NC12CC3CCC1CC(C3)C2)[C@@H]1CCCN1C(=O)OCc1ccccc1 (stereo partly specified)            NO
20  O=C(c1ccccn1)c1nc(-c2ccc(Cl)c(Cl)c2)nc2ccc(Cl)cc12            NO

The reported numbers originate from ChEMBL document CHEMBL1201862.
